- Target of assay: FGFR2 (Homo sapiens (Human))
- Sequence (P21802 22-821): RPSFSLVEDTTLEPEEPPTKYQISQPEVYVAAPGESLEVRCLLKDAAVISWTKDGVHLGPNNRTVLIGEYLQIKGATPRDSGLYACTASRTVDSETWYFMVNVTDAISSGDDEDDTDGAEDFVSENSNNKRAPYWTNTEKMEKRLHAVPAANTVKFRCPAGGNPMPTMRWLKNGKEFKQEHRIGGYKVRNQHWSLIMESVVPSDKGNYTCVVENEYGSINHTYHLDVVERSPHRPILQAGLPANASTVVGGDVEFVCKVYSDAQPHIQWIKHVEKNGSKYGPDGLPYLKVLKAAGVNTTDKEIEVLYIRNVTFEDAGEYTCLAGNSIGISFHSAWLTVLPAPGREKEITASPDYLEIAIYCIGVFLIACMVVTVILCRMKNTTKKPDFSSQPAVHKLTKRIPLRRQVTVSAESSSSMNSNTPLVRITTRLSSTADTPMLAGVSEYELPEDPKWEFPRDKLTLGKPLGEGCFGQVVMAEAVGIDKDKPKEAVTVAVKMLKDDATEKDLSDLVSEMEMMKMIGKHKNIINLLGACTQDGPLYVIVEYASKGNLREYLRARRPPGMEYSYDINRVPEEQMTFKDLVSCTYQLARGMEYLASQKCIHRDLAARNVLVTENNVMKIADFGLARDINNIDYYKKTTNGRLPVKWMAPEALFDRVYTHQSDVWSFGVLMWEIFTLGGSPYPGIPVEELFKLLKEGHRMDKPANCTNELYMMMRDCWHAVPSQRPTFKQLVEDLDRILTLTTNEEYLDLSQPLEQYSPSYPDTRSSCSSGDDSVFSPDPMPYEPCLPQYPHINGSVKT
- Test summary: Kinase assay, binding constants (Kd), kinase-tagged T7 phage, qPCR
Property name: Kd

Some solved cases for reference:
molecule Cc1cnnc(C)c1[C@H](C)Oc1ccc2[nH]nc(-c3ccc(N4CC5(CCS(=O)(=O)C5)C4)nc3)c2c1 [Example 145] , Kd observed: 20 to 100 nM

molecule C[C@@H](Oc1ccc2[nH]nc(-c3cnc(N4CCCN(C(N)=O)CC4)nc3)c2c1)c1c(Cl)cncc1Cl [Example 62] , Kd observed: 20 to 100 nM

New cases:
molecule COc1cc2[nH]nc(-c3cnc(N4CC[C@H]4C)c(F)c3)c2cc1O[C@H](C)c1c(Cl)cncc1Cl [Example 267] , Kd observed: 20 to 100 nM

molecule C[C@@H](Oc1ccc2[nH]nc(-c3cnc(N4CCC5(CC4)C(=O)NCCN5C)nc3)c2c1)c1c(Cl)cncc1Cl [Example 58] , Kd observed: 20 to 100 nM

###

- Target of assay: FGFR3 (Homo sapiens (Human))
- Sequence (P22607 23-806): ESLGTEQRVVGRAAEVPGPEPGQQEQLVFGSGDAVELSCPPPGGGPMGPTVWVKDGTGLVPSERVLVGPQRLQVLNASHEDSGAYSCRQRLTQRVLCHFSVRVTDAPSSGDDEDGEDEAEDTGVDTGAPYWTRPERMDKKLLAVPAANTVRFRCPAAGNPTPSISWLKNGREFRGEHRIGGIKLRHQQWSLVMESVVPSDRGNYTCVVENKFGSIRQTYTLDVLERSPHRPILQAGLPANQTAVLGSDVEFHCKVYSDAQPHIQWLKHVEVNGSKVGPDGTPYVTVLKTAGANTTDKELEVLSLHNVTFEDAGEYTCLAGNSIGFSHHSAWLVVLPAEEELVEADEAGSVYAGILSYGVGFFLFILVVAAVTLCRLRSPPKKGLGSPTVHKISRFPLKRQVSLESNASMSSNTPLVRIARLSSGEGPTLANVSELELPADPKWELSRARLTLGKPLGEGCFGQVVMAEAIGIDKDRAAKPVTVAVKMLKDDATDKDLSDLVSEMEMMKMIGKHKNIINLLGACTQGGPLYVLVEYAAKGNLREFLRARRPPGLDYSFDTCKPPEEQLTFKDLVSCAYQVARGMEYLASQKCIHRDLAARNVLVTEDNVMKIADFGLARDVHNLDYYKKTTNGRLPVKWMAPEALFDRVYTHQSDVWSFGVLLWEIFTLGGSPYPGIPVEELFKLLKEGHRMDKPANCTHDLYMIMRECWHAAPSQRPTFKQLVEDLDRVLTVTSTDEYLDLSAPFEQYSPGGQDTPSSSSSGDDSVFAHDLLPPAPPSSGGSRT
- Test summary: Kinase assay, binding constants (Kd), kinase-tagged T7 phage, qPCR
Property name: Kd

compound Cc1cnnc(C)c1[C@@H](C)Oc1ccc2[nH]nc(-c3ccc(N4CCN5CCC[C@H]5C4)nc3)c2c1 [Example 174] , Kd observed: 1 to 20 nM

compound C[C@@H](Oc1ccc2[nH]nc(-c3cnn(C4CCS(=O)(=O)CC4)c3)c2c1)c1c(Cl)cncc1Cl [Example 114] , Kd observed: 1 to 20 nM

compound COc1cc(-c2n[nH]c3ccc(O[C@H](C)c4c(Cl)cncc4Cl)cc23)cnc1N1CC2(C1)CN(S(C)(=O)=O)C2 [Example 344] , Kd observed: 100 to 300 nM

compound COc1cc2[nH]nc(-c3ccc(N4CCCC4)nc3)c2cc1O[C@H](C)c1c(Cl)cnc(C)c1Cl [Example 220] , Kd observed: 1 to 20 nM

compound C[C@@H](Oc1ccc2[nH]nc(-c3ccc(N4CC5(CN(C(=O)N(C)C)C5)C4)nc3)c2c1)c1c(Cl)cncc1Cl [Example 47] , Kd observed: 1 to 20 nM

compound C[C@@H](Oc1ccc2[nH]nc(-c3cnc(N4CCC4)c(C#N)c3)c2c1)c1c(Cl)cncc1Cl [Example 309] , Kd observed: 100 to 300 nM

###

- Target of assay: FGFR4 (Homo sapiens (Human), UniProt P22455)
- Sequence (P22455 22-802): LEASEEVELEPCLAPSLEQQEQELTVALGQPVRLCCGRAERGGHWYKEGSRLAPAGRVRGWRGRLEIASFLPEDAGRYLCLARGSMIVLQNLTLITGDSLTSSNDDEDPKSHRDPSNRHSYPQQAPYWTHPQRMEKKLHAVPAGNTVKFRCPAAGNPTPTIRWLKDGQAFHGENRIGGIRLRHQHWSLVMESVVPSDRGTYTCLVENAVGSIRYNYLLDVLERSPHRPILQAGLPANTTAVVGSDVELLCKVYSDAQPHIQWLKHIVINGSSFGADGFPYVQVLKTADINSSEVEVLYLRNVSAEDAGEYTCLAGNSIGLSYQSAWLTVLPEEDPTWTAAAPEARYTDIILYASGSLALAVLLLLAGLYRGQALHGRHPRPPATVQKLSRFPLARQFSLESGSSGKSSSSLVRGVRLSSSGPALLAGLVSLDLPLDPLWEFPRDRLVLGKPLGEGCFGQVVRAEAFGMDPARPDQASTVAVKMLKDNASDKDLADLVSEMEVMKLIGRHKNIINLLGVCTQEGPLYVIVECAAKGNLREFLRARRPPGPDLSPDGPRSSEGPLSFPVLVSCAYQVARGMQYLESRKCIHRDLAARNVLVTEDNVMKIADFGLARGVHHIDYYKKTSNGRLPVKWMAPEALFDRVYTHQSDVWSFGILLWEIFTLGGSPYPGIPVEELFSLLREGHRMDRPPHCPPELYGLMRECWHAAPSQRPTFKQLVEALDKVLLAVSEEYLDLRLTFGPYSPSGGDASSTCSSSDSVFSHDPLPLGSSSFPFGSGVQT
- Test summary: Kinase assay, binding constants (Kd), kinase-tagged T7 phage, qPCR
The following compounds are shown together with reported Kd values.

Some solved cases for reference:
The observed Kd for COc1cc2[nH]nc(-c3cnc(N4CC[C@@H](O)C4)c(C#N)c3)c2cc1O[C@H](C)c1c(C)cnnc1C when tested with FGFR4 (Homo sapiens (Human), UniProt P22455) stands at 1 to 20 nM

The observed Kd for C[C@@H](Oc1cc2c(-c3cnc(N4CC[C@@H]4C)c(C#N)c3)n[nH]c2cc1Cl)c1c(Cl)cncc1Cl when tested with FGFR4 (Homo sapiens (Human), UniProt P22455) stands at 20 to 100 nM

Attention now turns to another entry.
The observed Kd for Cc1cc2[nH]nc(-c3ccc(N4CC5(C4)CN(S(C)(=O)=O)C5)nc3)c2cc1O[C@H](C)c1c(Cl)cncc1Cl when tested with FGFR4 (Homo sapiens (Human), UniProt P22455) stands at 1 to 20 nM

Reference for the values: patent US20240109865A1
